- target_or_test_system: T1, human IL-11 (human, UniProt P20809 22-199)
- T1 construct: In the ELISAs this is recombinant human IL-11 coated on the plate (expressed in CHO cells as Fc-tagged and tag-free versions); In the fibroblast assays it is the IL-11 produced by human fibroblasts after TGFβ1 stimulation; also called recombinant human IL-11 (GenScript Cat. No. Z03108-1); interleukin 11
- T1 sequence (looked up): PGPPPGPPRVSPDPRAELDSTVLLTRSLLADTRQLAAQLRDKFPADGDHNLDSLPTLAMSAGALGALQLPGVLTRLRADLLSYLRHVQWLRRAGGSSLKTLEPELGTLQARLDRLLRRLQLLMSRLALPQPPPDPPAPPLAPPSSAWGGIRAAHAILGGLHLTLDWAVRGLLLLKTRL
- assay_details: EC50 from the indirect ELISA titrations of FIGS. 28A-28F on plate-coated recombinant human IL-11 (five-parameter fit), ng/ml is the concentration unit of FIG. 28 and paragraph 502
readout_label: EC50
The reply should read as a number followed by its unit.

Please fill in: EC50 reported for YU45-H10 (Fc fusion, tested as scFv-Fc (human IgG1); also called #22) VH: EVQLLESGGGVVQPGRSRRLSCAASGFSLNSYGMHWVRQAPGKGLEWVAVISYDGSNKYYADSVKGRFTISRDNSKNTLYLQMNSLRAEDTAVYYCAKLYSGSSNFDYWGQGTLVTVSS VL: QSALTQPASVSGSPGQSITISCTGTSSDVGGYNYVSWYQQHPGKAPKLMIYDVSNRPSGVSNRFSGSKSGNTASLTISGLQAEDEADYYCSSYTSSSTWVFGGGTKLTVL = 0.0248 µg/mL

Please fill in: EC50 reported for YU45-A8/C6 (Fc fusion, tested as scFv-Fc (human IgG1); also called #27) VH: QVQLVESGGGVVQPGRSLRLSCAASGFTFSSYGMHWVRQAPGKGLEWVAVISYDGSNKYYADSVKGRFTISRDNSKNTLYLQMNSLRAEDTAVYYCAKLSGPNGVDYWGQGTLVTVSS VL: QSALTQPASVSGSPGQSITISCTGTSSDVGGYNYVSWYQQHPGKAPKLMIYDVGNRPSGVSNRFSGSKSGNTASLTISGLQAEDEADYYCSSYTSGSTWVFGGGTKLTVL = 0.71 µg/mL

Please fill in: EC50 reported for YU45-D9/D3 (Fc fusion, tested as scFv-Fc (human IgG1); also called #31) VH: EVQLVESGGGVVQPGRSLRLSCAASGFTFSSYGMHWVRQAPGKGLEWVAVISYDGSNKYYADSVKGRFTISRDNSKNTLYLQMNSLRAEDTAVYYCARLHFSQYFSTIDAFDIWGQGTMVTISS VL: QSVLTQPPSVSAAPGQEVTISCSGSSSNIGNNYVSWYQHLPGTAPKLLIYDNTERPSGIPDRFSGSRSGTSVTLGITGLQTGDEADYYCGTWDSSLSGGVFGGGTKLTVL = 0.71 µg/mL
